# assayed_target: T1, Boi1, P38041
# T1 sequence (P38041 1-86, looked up): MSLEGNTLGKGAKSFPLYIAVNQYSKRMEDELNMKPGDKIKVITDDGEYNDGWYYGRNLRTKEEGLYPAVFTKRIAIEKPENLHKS
# assay_remarks: SPOT array
# condition_notes: median of control spots 1162
Recorded SPOT intensity for the following binders
Response field accepts a number only; no unit should be typed.

1) LEFRAILFIPKRAPF; 10

Ask | Please supply the value of reported SPOT intensity for the item VQPTAAPATPPRHIS
Reply | 0

Ask | Please supply the value of reported SPOT intensity for the item GDHPKGPPPPPPPDE
Reply | 4

Ask | Please supply the value of reported SPOT intensity for the item NAGIRPKFILALNDE
Reply | 8

Ask | Please supply the value of reported SPOT intensity for the item DLFKPLPEPPTELGR
Reply | 0

Ask | Please supply the value of reported SPOT intensity for the item GRLRPKRIAPWHLIQ
Reply | 2

Ask | Please supply the value of reported SPOT intensity for the item SKSRLLIELPEGFFT
Reply | 1

Ask | Please supply the value of reported SPOT intensity for the item LYKRKPILLPDPKPL
Reply | 0

Ask | Please supply the value of reported SPOT intensity for the item KTRLRPAFIQQLWSS
Reply | 1

Ask | Please supply the value of reported SPOT intensity for the item MTKTPETSPPKRPMG
Reply | 0

Ask | Please supply the value of reported SPOT intensity for the item ANNQGPPNLPARDKS
Reply | 4

Ask | Please supply the value of reported SPOT intensity for the item VFQFQMPTTPISTKM
Reply | 0

Ask | Please supply the value of reported SPOT intensity for the item RRTRLRPPTPLSQLL
Reply | 0

Ask | Please supply the value of reported SPOT intensity for the item SRSKPLPLTPNSKYN
Reply | 2

Ask | Please supply the value of reported SPOT intensity for the item TKHKAPPPPPPTAET
Reply | 0
